B1: library; a variant is named by its letters at N, in order (parent)
chain: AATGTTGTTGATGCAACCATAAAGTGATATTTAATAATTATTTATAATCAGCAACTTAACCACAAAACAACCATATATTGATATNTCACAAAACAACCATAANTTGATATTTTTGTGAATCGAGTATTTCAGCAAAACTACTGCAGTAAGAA

# Variants of: B1
# experimental.details: relative integration efficiency (T-RL orientation) vs wild-type transposon end (log2 (normalized fold change)); transposon end mutated: left end; higher = more efficient transposition
# experimental.parameters: with VchCAST RNA-guided transposition machinery (E. coli BL21(DE3) host, lacZ target)
Rule: relative integration efficiency (log2) of -0.1 or more gives fulfilled; anything lower gives not fulfilled.

> print(dat)
                                  variant.id       category
 1  CT A22C A23C G24T T25G T76G A77C T78G T79G A102C T104G T105G  not fulfilled
 2                              CG A67C C68A  not fulfilled
 3                              CG A90C A91C  not fulfilled
 4                    CG A46C A47C T48G C49A  not fulfilled
 5  CG A118C A119C T120G C121A G122T A123C G124T T125G      fulfilled
 6  TA A23G G24T A33T A70C T76A T86G A102T T111C T113C  not fulfilled
 7  TA T76A T78A T84A C87A A102T T111C T113C      fulfilled
 8                              CG T82A A83T  not fulfilled
 9                    CG A77T T78A T79A G80C  not fulfilled
10                                   CG T43C  not fulfilled
11             TA T76A A77G C87T T104G T113A  not fulfilled
12  TA A16C G24T T30A A70C T76A T86G T104G T113A  not fulfilled
13                    CG T79A G80C A81T T82A  not fulfilled
14                    CG T86G C87A A88C C89A      fulfilled
15                    CG A70C C71A C72A A73C  not fulfilled
16                    CG A58C A59C C60A C61A      fulfilled
17                                CG T3A G4C      fulfilled
18                                   CG A99T  not fulfilled
